experiment: Clearance in Beagle dog at 0.8 umol/kg, iv; type: ADME, organism-based, Canis lupus familiaris; settings: in vivo
READOUT: clearance (mL/min/kg)
Lab book: enter the figure in mL/min/kg, no units written.

Ask | Consider the compound shown here: CCNC(=O)c1ccc(CN2CCC(c3ccc(C(=O)Nc4ccccc4N)cc3)CC2)cc1 What is its recorded clearance?
Reply | 7

* * *

test: Volume of distribution in steady state in Beagle dog at 0.8 umol/kg, iv; format: ADME, organism-based, Canis lupus familiaris; conditions: in vivo, read-out: Vdss
READOUT: Vd (L/kg)
Respond numerically; units are L/kg and should not be typed.

Ask | Recorded Vd for CCNC(=O)c1ccc(CN2CCC(c3ccc(C(=O)Nc4ccccc4N)cc3)CC2)cc1 , please?
Reply | 4.2

* * *

test: Half life in mouse at 5 umol/kg, iv; type: ADME, organism-based; conditions: in vivo
READOUT: half-life (h)
Please give a number only; it is taken to be in h.

Ask | What value of half-life has been reported for the following compound? CCNC(=O)c1ccc(CN2CCC(c3ccc(C(=O)Nc4ccccc4N)cc3)CC2)cc1
Reply | 4.8

* * *

test: Half life in Han Wistar rat at 70.9 umol/kg, po; type: ADME, organism-based; settings: in vivo
READOUT: half-life (h)
Give just the numeric value; h need not be written.

Ask | So what's the measured half-life for this one? CCNCc1cnc(-c2ccc(C(=O)Nc3ccccc3N)cc2)s1
Reply | 2.1

* * *

molecular target: Histone deacetylase; test: Inhibition of human HDAC in HeLa cells; format: cell-based
READOUT: Log IC50

Ask | Give Log IC50 (Histone deacetylase) of the following compound: Nc1ccccc1NC(=O)c1ccc(N2CCOCC2)cc1
Reply | -4.78

Ask | Return Log IC50 measured with Histone deacetylase given this compound: Nc1ccccc1NC(=O)c1ccc(N2CCN(Cc3ccccc3)CC2)cc1
Reply | -4.44

Ask | Request - read-out Log IC50 | tested on Histone deacetylase | compound Nc1ccccc1NC(=O)c1ccc(C2CCN(Cc3ccccc3)CC2)cc1
Reply | -4.57

Ask | # returns recorded Log IC50 (system: Histone deacetylase) for CN1CCC(c2ccc(C(=O)Nc3ccccc3N)cc2)CC1
Reply | -5.23

* * *

test: Unbound ligand in mouse plasma at 54.8 umol/kg, po; type: ADME, organism-based
READOUT: fraction unbound
Write the number on its own, no unit after it.

Ask | // fraction unbound lookup, key: CN(C)C(=O)c1ccc(CN2CCC(c3ccc(C(=O)Nc4ccccc4N)cc3)CC2)cc1
Reply | 0.4

* * *

assay: Clearance in Han Wistar rat at 2.5 umol/kg, iv; type: ADME, organism-based; conditions: in vivo
READOUT: clearance (mL/min/kg)
Could you give me the number in mL/min/kg? Just the number is fine.

Ask | Quick one: clearance of CCNC(=O)c1ccc(CN2CCC(c3ccc(C(=O)Nc4ccccc4N)cc3)CC2)cc1 ?
Reply | 16

* * *

Record set of IC50 for target or system UniProt:P10635.
Sequence (P10635 whole entry): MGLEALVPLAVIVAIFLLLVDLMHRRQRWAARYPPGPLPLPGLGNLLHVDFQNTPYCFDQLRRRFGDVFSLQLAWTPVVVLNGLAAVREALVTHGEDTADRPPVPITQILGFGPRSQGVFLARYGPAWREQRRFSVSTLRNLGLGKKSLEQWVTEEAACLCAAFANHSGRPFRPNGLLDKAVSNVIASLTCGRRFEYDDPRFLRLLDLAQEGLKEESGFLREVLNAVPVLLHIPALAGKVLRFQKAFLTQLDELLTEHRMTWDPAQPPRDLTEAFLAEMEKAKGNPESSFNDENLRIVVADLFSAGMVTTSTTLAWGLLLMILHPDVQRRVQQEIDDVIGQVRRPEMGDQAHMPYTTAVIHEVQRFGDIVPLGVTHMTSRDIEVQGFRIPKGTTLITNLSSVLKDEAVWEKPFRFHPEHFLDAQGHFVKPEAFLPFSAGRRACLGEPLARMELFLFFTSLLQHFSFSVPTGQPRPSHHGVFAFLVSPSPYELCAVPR

Ask | Given the entry CNC(=O)c1ccc(CN2CCC(c3ccc(C(=O)Nc4ccccc4N)cc3)CC2)cc1 , report its measured IC50.
Reply | > 10 µM

Ask | Can you look up the measured IC50 of Nc1ccccc1NC(=O)c1ccc(C2CCN(CCC(=O)Nc3ccccc3F)CC2)cc1 for me?
Reply | 10 µM
